- measurement-target: hCA IX (Homo sapiens)
- Construct: made in house
- measurement-description: stopped-flow CO2 hydrase assay, hCA IX
- Type: biochemical
- assay-context: sulfonamido-containing squaramides; mean from 3 assays, stopped flow
// boundary case: Ki equal to 80 nM maps to condition not met; strictly smaller maps to condition met

# compound, assigned-label
records = [
    ("NS(=O)(=O)c1ccc(CCNc2c(Nc3ccc(Cl)cc3)c(=O)c2=O)cc1 [Compound 5c]", "condition not met"),
    ("NS(=O)(=O)c1ccc(CCNc2c(Nc3ccc(Br)cc3)c(=O)c2=O)cc1 [Compound 5d]", "condition met"),
    ("COc1c(Nc2cccc(S(N)(=O)=O)c2)c(=O)c1=O [Compound 10]", "condition met"),
    ("NS(=O)(=O)c1ccc(CCNc2c(NCCc3ccc(S(N)(=O)=O)cc3)c(=O)c2=O)cc1 [Compound 6]", "condition not met"),
    ("NS(=O)(=O)c1ccc(Nc2c(Nc3ccccc3)c(=O)c2=O)cc1 [Compound 8]", "condition met"),
    ("NS(=O)(=O)c1ccc(CCNc2c(Nc3ccccc3)c(=O)c2=O)cc1 [Compound 5a]", "condition met"),
    ("COc1ccc(Nc2c(NCCc3ccc(S(N)(=O)=O)cc3)c(=O)c2=O)cc1 [Compound 5b]", "condition not met"),
    ("NS(=O)(=O)c1ccc(CCNc2c(Nc3ccc(I)cc3)c(=O)c2=O)cc1 [Compound 5e]", "condition not met"),
    ("NS(=O)(=O)c1cccc(Nc2c(Nc3ccccc3)c(=O)c2=O)c1 [Compound 11]", "condition met"),
]

---

Property: melting point; scope: individual molecules
reported-metric: melting point

# molecule, endpoint-result
data = [
    ("NS(=O)(=O)c1ccc(CCNc2c(Nc3ccccc3)c(=O)c2=O)cc1", "> 250 °C"),
    ("Cc1cc(=O)oc2cc(OCCCCCNc3c(Nc4ccc(Cl)cc4)c(=O)c3=O)ccc12 [Compound 16g]", "225 to 227 °C"),
    ("NS(=O)(=O)c1ccc(CCNc2c(Nc3ccc(I)cc3)c(=O)c2=O)cc1", "> 250 °C"),
]
